- ASSAY_METHOD_TEXT: NTP42 levels in NHP plasma after repeat oral dosing
- Format: in vivo, cynomolgus monkey
- STATED_CONDITIONS: cynomolgus monkey, plasma, oral; 14 days repeat dosing of NTP42:KVA4 at 200 mg/kg/day; read-out: Cmax of NTP42 in NHP plasma, molar equivalent
MEASURED_PROPERTY: Cmax at 14 days (µM)

1. CC(C)(C)NC(=O)NS(=O)(=O)c1cc(C#N)ccc1Oc1cccc(-c2ccc(OC(F)F)cc2)c1 :: 25

====

- ASSAY_METHOD_TEXT: NTP42 levels in NHP plasma after repeat oral dosing
- Type: in vivo, cynomolgus monkey
- STATED_CONDITIONS: cynomolgus monkey, plasma, oral; 14 days repeat dosing of NTP42:KVA4 at 200 mg/kg/day; read-out: Cmax of NTP42 in NHP plasma
MEASURED_PROPERTY: Cmax at 14 days (ng/mL)

1) CC(C)(C)NC(=O)NS(=O)(=O)c1cc(C#N)ccc1Oc1cccc(-c2ccc(OC(F)F)cc2)c1 [NTP42] :: 13200
